Listed here are compounds together with their documented growth inhibition.
- assay.remarks: NCI Yeast Anticancer Drug Screen. Data for the rad18 strain (AID 177)
- condition.set: S. cerevisiae rad18 mutant growth inhibition; at 100.0 µM; stronger effect = higher value
- Protocol: Growth inhibition of yeast strains with defined genetic alterations is measured as a screen for potential anti-cancer activity. Selected strains with alterations in DNA damage repair or cell cycle control were exposed to compounds and growth inhibition was measured relative to vehicle treated controls. The strain used in this assay is rad18
This is part of a sample that, as a whole, favours compounds with a hit. Of some 79,000 tested, about 15% had one in any assay.
quantity.kind: growth inhibition (%)

1. O=S(=O)(c1cccc(C(F)(F)F)c1)N1c2ccccc2-n2cccc2C1c1cccnc1 (stereo unspecified) ... 89
2. CCCC/C=C1\CCC(CN2CCCC2)C1=O (stereo unspecified) ... 92
3. CC/C(=C(\c1ccccc1)c1ccc(OCC[N+](C)(C)C)cc1)c1ccccc1 ... 99
4. O=[N+]([O-])c1ccc2nc(=S)[nH]n2c1 ... 60
5. CC(=O)NC(c1nc2cc(C)c(C)cc2[nH]1)c1nc2cc(C)c(C)cc2[nH]1 ... 55
6. COc1ccc(C(C)c2cc3c(cc2OCC(C)=O)OCO3)cc1 (stereo unspecified) ... 84

----------
- assay.remarks: NCI Yeast Anticancer Drug Screen. Data for the mlh1 rad18 strain (AID 175)
- condition.set: S. cerevisiae mlh1 rad18 strain growth inhibition; at 50.0 µM; stronger effect = higher value
Compounds without any hit were thinned out: in the full panel of roughly 79,000, 15% have a hit.
Classes are defined on growth inhibition with ranges small value = under 50%, mid value = from 50% up to 90%, large value = 90% and over

1) O=C(Nn1c(-c2ccccc2)nc2ccccc2c1=O)c1ccc(CS)cc1 ... small value
2) CC(=O)O/N=C1C=C/C(=C(/C#N)c2ccccc2)C=C/1C ... large value
3) CCCCS(=O)(=O)Nc1ccc(Nc2c3ccccc3nc3ccccc23)c(OC)c1 ... mid value
4) CC(C)NCCCNc1c2ccccc2nc2cccc([N+](=O)[O-])c12 ... mid value
5) CN1C(=O)C(CC(=O)O)NC1=S (configuration not stated) ... small value
6) NC(=S)N1N=C2c3ccccc3CC[C@H]2[C@@H]1c1ccc(Cl)cc1 ... mid value
7) CCN(CC)CCCNc1ccc([N+](=O)[O-])c2nc3ccc(OC)cc3c(NCCCN(CC)CC)c12 ... small value
8) CC(C)OC(=O)NNc1cccc(Cl)c1 ... large value

----------
- assay.remarks: NCI Yeast Anticancer Drug Screen. Data for the sgs1 strain (AID 173);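 also: 0% = growth of vehicle-only control cultures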
- condition.set: S. cerevisiae sgs1 mutant, at 3.7 µM, stronger effect = higher value
This is part of a sample that, as a whole, favours compounds with a hit. Of some 79,000 tested, about 15% had one in any assay.
quantity.kind: growth inhibition (%)

1. CCCCCCCSCC1C(=O)C23C(O)C1CCC2C12COC3(O)C(O)C1C(C)(C)CCC2O (centres undefined) ... 19
2. CCCCCCNCCCNc1c2cc(OC)ccc2nc2cccc([N+](=O)[O-])c12 ... 65
3. Nc1ccc2c(c1)C(=O)c1c(F)cccc1-2 ... 0
4. O=C(Nc1cccs1)c1ccccc1 ... -1
5. COC(=O)/C(C#N)=C\NC(=S)C(N)=S ... 25
6. O=C1c2ccccc2-c2cc3ccccc3c(=O)n21 ... 14
7. CN(C)CCNC(=Cc1ccc2ccccc2[n+]1C)NCCN(C)C ... 0
8. CCOP(=O)(OCC)/C(C#N)=C/c1ccc(-c2ccc(F)cc2F)o1 ... -4
9. COc1ccc(C(C)c2cc3c(cc2OCC(C)=O)OCO3)cc1 (centres undefined) ... -2
10. C/C(=N\Sc1ccccc1)c1ccccc1O ... 4
11. COC(=O)C(=O)c1c(-c2ccc(Cl)c(Cl)c2)[nH]c2[nH]n(-c3ccccc3)c(=O)c2c1=O ... -1
12. S=C1C(=Nc2ccccc2)N(c2ccccc2)/C(=N\c2ccccn2)N1c1ccccc1 ... 4
13. O=C1C=CC(=Nc2cccc3c2-c2ccccc2C3=O)O1 ... 25
14. O=C(O)c1ccccc1C(=O)OC1CCc2ccccc2C1 (centres undefined) ... -4
15. O=C1C[C@H]2[C@H](c3ccc(Br)cc3)[C@H]3C(=O)c4ccccc4NC(=O)[C@@H]3[C@@]2(O)c2ccccc2N1 ... 17
16. Cc1cccc(/C=N/NC(=S)NC2CCCCC2)n1 ... -2
17. O=S1(=O)CCC2=CC(C(F)(F)F)=CC(C(F)(F)F)=CN21 ... 67
18. CCOC(=S)SSSC(=S)OCC ... 9
19. O=C1c2ccccc2-c2ccc(N=Cc3ccccc3)cc21 ... -11
20. CCC1(O)C(=O)OCc2c1cc1n(c2=O)Cc2cc3c(N)cccc3nc2-1 (centres undefined) ... -7
21. Cc1ccc(S(=O)(=O)Nc2cccc3cccnc23)cc1 ... 4
22. CCCCCCCCCCCNC=O ... -17
23. O=[N+]([O-])c1cccc2nc3ccccc3c(NCCCN3CCCCC3)c12 ... 93
24. Cc1c2cc[n+](CCO)cc2c(C)c2c1[nH]c1ccc(O)cc12 ... 19
